system: Escherichia coli TOP10; experiment: shrunken log2 fold change of peptide-encoding DNA abundance (4.5 h post-induction vs induction); higher = less antimicrobial activity (less host growth inhibition); conditions: time post-induction: 4.5 h; library: site-saturation at positions 5, 18, 19, 20
Item-by-item account of shrunken log2 fold change
Keep the answer to the number alone.

1) RRIRDRPPRLPRPRPRPTKVPRP: -0.274
2) RRIRQRPPRLPRPRPRPDWLPRP: -0.102
3) RRIRHRPPRLPRPRPRPNLCPRP: 0.0613
4) RRIRLRPPRLPRPRPRPDLDPRP: -0.0167
5) RRIRLRPPRLPRPRPRPAKRPRP: 0.0374

# next sequence below
Query: If you can, please state the reported shrunken log2 fold change value of RRIRLRPPRLPRPRPRPGPYPRP .
Reply: -0.215

---

test system: Escherichia coli TOP10; assay: shrunken log2 fold change of peptide-encoding DNA abundance (4.5 h post-induction vs induction); higher = less antimicrobial activity (less host growth inhibition); details: time post-induction: 4.5 h; library: site-saturation at positions 5, 18, 19, 20
property_name: shrunken log2 fold change
The answer should be written as a number, with no unit following it.

1) RRIRLRPPRLPRPRPRPHWFPRP: -0.08

Query: What value of measured shrunken log2 fold change is listed for RRIRLRPPRLPRPRPRPDIRPRP ?
Reply: -0.15

Query: Name the recorded shrunken log2 fold change for RRIRDRPPRLPRPRPRPLNTPRP .
Reply: -0.0995

Query: Which measured shrunken log2 fold change value corresponds to RRIRCRPPRLPRPRPRPVFAPRP ?
Reply: -0.224

---

# shrunken log2 fold change listing for each entry below
system: Escherichia coli TOP10; assay: shrunken log2 fold change of peptide-encoding DNA abundance (4.5 h post-induction vs induction); higher = less antimicrobial activity (less host growth inhibition); conditions: time post-induction: 4.5 h; library: site-saturation at positions 5, 18, 19, 20
Lab note: write the figure by itself, no unit.

1) RRIRWRPPRLPRPRPRPSWAPRP: 0.152
2) RRIRDRPPRLPRPRPRPGCWPRP: 1.03
3) RRIRERPPRLPRPRPRPNECPRP: -0.154
4) RRIRDRPPRLPRPRPRPAETPRP: 0.0806
5) RRIRCRPPRLPRPRPRPFFIPRP: -0.484
6) RRIRTRPPRLPRPRPRPGSEPRP: -0.0538
7) RRIRIRPPRLPRPRPRPYQTPRP: -0.0792
8) RRIRKRPPRLPRPRPRPRAEPRP: 0.632

Query: Request the reported shrunken log2 fold change associated with RRIRWRPPRLPRPRPRPRDHPRP
Reply: 0.526

Query: Look at this sequence and give its reported shrunken log2 fold change. RRIRPRPPRLPRPRPRPISLPRP
Reply: -0.427

Query: Tell me the measured shrunken log2 fold change of RRIRTRPPRLPRPRPRPSNFPRP , please.
Reply: -0.0603

---

system: Escherichia coli TOP10; experiment: shrunken log2 fold change of peptide-encoding DNA abundance (4.5 h post-induction vs induction); higher = less antimicrobial activity (less host growth inhibition); settings: time post-induction: 4.5 h; library: site-saturation at positions 5, 18, 19, 20;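 note: peptides expressed intracellularly from a pBAD plasmid library in pooled LB shake-flask culture, induced with 0.3% L-arabinose, DNA abundance read by NGS, three biological replicates, DESeq2 with apeglm shrinkage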
property_name: shrunken log2 fold change

Query: Query (sequence): RRIRLRPPRLPRPRPRPNIGPRP ; field requested: shrunken log2 fold change
Reply: -0.00419

Query: Give its shrunken log2 fold change value. Item: RRIRNRPPRLPRPRPRPWMFPRP
Reply: -0.182

Query: I'd like to know its shrunken log2 fold change. The sequence in question is RRIRERPPRLPRPRPRPCFTPRP
Reply: -0.453

Query: Please give the measured shrunken log2 fold change for this sequence: RRIRARPPRLPRPRPRPAVMPRP
Reply: 0.399

Query: Sample RRIRWRPPRLPRPRPRPYVHPRP — what was its shrunken log2 fold change?
Reply: -1.18

The reported measurements were obtained from the supplement of paper PMC9112550.
